For each entry below, report its inhibition at 10 µM value.
- Target entity: CYP2D6 (Homo sapiens)
- Construct: tissue Eurofins Cerep (CRO); host or cells: human liver microsomes
- Sequence (P10635 whole entry): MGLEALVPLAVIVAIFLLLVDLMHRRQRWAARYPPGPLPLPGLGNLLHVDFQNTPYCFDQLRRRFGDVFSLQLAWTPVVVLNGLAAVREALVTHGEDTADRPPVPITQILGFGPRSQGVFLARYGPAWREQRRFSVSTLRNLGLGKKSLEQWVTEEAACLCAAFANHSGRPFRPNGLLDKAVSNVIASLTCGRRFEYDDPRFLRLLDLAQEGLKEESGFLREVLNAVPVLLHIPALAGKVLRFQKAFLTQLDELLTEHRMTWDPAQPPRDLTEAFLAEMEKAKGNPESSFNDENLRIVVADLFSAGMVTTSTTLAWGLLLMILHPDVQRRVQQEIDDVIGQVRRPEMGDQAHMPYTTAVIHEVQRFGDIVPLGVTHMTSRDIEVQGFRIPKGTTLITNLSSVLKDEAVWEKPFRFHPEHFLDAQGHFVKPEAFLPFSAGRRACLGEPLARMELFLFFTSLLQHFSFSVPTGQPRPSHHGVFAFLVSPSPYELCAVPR
- Experiment: CYP inhibition in human liver microsomes
- Format: in vitro ADME
- Test parameters: read-out: CYPs inhibition CYP2D6
Quote the value and follow it with the unit of measurement.

Lab entry: CYP2D6 (Homo sapiens) assay, molecule `CN(CCCNC(=O)c1ccc(Cl)cc1)Cc1ccccc1` , inhibition at 10 µM = 95.1%

Summary line: `O=C(NCCCNCc1ccccc1)c1ccc(Cl)cc1` , CYP2D6 (Homo sapiens), reported inhibition at 10 µM = 91.6%

====

- Target entity: MRP3 (Homo sapiens, UniProt O15438)
- Experiment: Drug transporter inhibition (ABC family)
- Type: in vitro ADME
- Test parameters: transporter-overexpressing cell lines, read-out: Drug transporters inhibition MRP3
Property: inhibition at 10 µM (%)
Give your result in % as a bare value.

inhibition at 10 µM in this record for `O=C(NCCCNCc1ccccc1)c1ccc(Cl)cc1` : -0.6

inhibition at 10 µM reading for `CN(CCCNC(=O)c1ccc(Cl)cc1)Cc1ccccc1` : -0.3

====

Please go through the items and note down their inhibition at 10 µM.
- Target entity: P-gp (Homo sapiens, UniProt P08183)
- Construct: in the Caco-2 cell line with and without verapamil; host or cells: Caco-2
- Experiment: Drug transporter inhibition (ABC family)
- Format: in vitro ADME
- Test parameters: transporter-overexpressing cell lines, read-out: Drug transporters inhibition P-gp
State the result as a value with its unit after it.

The compound listed as O=C(NCCCNCc1ccccc1)c1ccc(Cl)cc1 [compound 7i-deMe] has a reported inhibition at 10 µM of 1%

Summary for this compound, CN(CCCNC(=O)c1ccc(Cl)cc1)Cc1ccccc1 [compound 7i] : inhibition at 10 µM is 10.6%

====

- Experiment: Bidirectional permeability in Caco-2 (pH 6.5/7.4)
- Type: in vitro ADME, human
- Test parameters: human, Caco-2, pH 6.5, Caco-2, 10 µM; read-out: Permeability A/B pH6.5/7.4
Property: Papp A→B at 10 µM (×10⁻⁶ cm/s)
Provide only the numeric value, understood in ×10⁻⁶ cm/s.

Per the records, this compound ( `O=C(NCCCNCc1ccccc1)c1ccc(Cl)cc1` ) has Papp A→B at 10 µM equal to 31.1

====

- Experiment: Pharmacokinetic study in plasma and brain
- Format: in vivo, male C57BL/6 mice
- Test parameters: male, C57BL/6, mouse, brain, iv, 1 mg/kg, i.v., brain, read-out: Brain tmax
Property: Tmax

Please fill in: Tmax reported for `CN(CCCNC(=O)c1ccc(Cl)cc1)Cc1ccccc1` = ≤ 30 min

====

- Target entity: CYP1A (Homo sapiens, UniProt P05177)
- Construct: tissue Eurofins Cerep (CRO); host or cells: human liver microsomes
- Sequence (P05177 2-516 limits assumed): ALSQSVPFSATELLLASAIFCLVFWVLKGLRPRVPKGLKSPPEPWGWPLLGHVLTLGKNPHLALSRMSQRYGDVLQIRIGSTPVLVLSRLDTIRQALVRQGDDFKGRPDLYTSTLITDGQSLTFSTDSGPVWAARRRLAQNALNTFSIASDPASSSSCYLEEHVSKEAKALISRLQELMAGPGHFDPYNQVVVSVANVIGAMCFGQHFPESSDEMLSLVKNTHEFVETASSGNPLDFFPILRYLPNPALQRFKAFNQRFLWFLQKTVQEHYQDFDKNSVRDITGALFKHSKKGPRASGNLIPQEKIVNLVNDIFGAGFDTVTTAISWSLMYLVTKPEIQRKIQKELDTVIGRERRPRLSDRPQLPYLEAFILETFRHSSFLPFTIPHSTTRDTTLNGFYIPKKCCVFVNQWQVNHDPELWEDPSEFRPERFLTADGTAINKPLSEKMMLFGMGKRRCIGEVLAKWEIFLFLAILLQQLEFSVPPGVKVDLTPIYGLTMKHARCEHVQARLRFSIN
- Experiment: CYP inhibition in human liver microsomes
- Assay type: in vitro ADME
- Test parameters: read-out: CYPs inhibition CYP1A
Property: inhibition at 10 µM (%)
Give your result in % as a bare value.

The compound listed as `CN(CCCNC(=O)c1ccc(Cl)cc1)Cc1ccccc1` shows inhibition at 10 µM equal to 2.1

Reported inhibition at 10 µM ( `O=C(NCCCNCc1ccccc1)c1ccc(Cl)cc1` ) = 9.4

====

- Target entity: MRP2 (Homo sapiens, UniProt Q92887)
- Sequence (Q92887 whole entry): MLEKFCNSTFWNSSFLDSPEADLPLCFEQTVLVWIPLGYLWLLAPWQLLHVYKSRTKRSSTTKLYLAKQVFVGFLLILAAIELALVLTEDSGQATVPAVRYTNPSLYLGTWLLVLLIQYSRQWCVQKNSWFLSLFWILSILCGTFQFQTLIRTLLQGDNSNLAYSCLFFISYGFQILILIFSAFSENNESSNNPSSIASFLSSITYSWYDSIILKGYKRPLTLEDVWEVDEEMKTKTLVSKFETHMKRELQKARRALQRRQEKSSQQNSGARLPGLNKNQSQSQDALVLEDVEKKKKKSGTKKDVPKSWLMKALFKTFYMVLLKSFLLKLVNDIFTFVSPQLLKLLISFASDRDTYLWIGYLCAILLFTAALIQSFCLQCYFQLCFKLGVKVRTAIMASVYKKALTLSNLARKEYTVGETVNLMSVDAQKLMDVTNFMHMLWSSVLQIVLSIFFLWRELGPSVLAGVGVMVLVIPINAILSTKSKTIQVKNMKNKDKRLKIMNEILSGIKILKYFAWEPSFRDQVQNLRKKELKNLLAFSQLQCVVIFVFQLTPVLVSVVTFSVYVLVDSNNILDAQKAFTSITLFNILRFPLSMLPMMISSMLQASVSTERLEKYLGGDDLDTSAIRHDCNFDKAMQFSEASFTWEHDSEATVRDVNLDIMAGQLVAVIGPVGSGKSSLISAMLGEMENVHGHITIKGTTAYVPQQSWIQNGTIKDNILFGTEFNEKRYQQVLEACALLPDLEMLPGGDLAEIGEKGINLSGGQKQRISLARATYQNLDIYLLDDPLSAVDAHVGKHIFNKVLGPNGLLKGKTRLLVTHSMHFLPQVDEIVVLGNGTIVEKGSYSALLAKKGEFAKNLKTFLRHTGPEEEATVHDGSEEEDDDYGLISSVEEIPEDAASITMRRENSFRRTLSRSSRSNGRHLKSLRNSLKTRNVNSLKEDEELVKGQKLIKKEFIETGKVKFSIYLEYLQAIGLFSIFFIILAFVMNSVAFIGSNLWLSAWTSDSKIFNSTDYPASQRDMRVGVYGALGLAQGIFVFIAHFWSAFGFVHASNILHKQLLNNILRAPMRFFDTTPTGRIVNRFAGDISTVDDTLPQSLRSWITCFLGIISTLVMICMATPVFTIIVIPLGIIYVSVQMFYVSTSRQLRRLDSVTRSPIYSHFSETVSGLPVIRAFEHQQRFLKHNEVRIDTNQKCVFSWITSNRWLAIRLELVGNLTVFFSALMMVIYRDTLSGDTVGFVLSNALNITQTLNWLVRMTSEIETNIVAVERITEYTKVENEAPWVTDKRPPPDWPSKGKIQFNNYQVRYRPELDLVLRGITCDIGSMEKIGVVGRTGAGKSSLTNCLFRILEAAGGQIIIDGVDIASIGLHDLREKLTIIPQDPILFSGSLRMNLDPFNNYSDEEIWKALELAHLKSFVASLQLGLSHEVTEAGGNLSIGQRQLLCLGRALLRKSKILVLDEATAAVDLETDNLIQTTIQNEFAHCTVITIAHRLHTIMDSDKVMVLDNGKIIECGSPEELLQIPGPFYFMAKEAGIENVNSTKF
- Experiment: Drug transporter inhibition (ABC family)
- Assay type: in vitro ADME
- Test parameters: transporter-overexpressing cell lines, read-out: Drug transporters inhibition MRP2
Property: inhibition at 10 µM (%)
The answer is to be given in %; state only the numeric part.

Sample `CN(CCCNC(=O)c1ccc(Cl)cc1)Cc1ccccc1` ; inhibition at 10 µM observed: -18.8

// recorded inhibition at 10 µM for `O=C(NCCCNCc1ccccc1)c1ccc(Cl)cc1` : -11.5

====

- System: P-gp
- Construct: in the Caco-2 cell line with and without verapamil; host or cells: Caco-2
- Experiment: P-gp substrate assessment, Caco-2 with and without verapamil
- Assay type: in vitro ADME
- Test parameters: human; Caco-2, pH 7.4/7.4, with verapamil; read-out: P-gp substrate, Verapamil, e-ratio
- Description: The compound was classically evaluated at 10 µM for all the ADME analyses. Bidirectional permeability (apical A to basolateral B pH 6.5/7.4 and basolateral B to apical A pH 7.4/6.5) was assessed in the epithelial colorectal adenocarcinoma cell line (Caco-2 cell line). Results were expressed as × 10^−6cm/s (Papp) and as % recovery. Efflux ratio, i.e., Papp(B-A)/Papp(A-B), was calculated. Plasma protein binding was analyzed by HPLC-MS/MS after 4-h incubation at 37 °C, as described by Banker et al.. […]
Property: efflux ratio at 10 µM
Number only, please.

Here `CN(CCCNC(=O)c1ccc(Cl)cc1)Cc1ccccc1` was tested on P-gp, and its efflux ratio at 10 µM came to 0.6

====

Hi there, I'd appreciate the recorded inhibition at 10 µM for every entry that follows.
- Target entity: CYP2C9 (Homo sapiens, UniProt P11712)
- Construct: tissue Eurofins Cerep (CRO); host or cells: human liver microsomes
- Sequence (P11712 whole entry): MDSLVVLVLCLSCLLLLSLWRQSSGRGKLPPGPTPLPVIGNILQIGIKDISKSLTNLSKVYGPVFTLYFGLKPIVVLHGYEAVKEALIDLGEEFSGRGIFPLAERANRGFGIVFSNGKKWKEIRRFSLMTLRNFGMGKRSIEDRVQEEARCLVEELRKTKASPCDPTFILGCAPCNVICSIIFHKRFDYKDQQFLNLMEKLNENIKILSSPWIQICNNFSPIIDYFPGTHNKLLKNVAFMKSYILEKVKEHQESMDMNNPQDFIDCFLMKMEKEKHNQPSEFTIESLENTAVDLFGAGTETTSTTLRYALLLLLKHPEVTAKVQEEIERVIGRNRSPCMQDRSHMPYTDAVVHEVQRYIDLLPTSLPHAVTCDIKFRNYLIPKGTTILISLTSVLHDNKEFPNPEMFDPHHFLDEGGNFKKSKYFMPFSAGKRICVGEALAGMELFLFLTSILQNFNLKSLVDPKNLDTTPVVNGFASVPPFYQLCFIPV
- Experiment: CYP inhibition in human liver microsomes
- Format: in vitro ADME
- Test parameters: read-out: CYPs inhibition CYP2C9
Give the value, in units of %, as a plain number.

Fill in: CYP2C9 (Homo sapiens, UniProt P11712) inhibition at 10 µM for O=C(NCCCNCc1ccccc1)c1ccc(Cl)cc1 [compound 7i-deMe] = 5.9

// assay CYP2C9 (Homo sapiens, UniProt P11712), entry CN(CCCNC(=O)c1ccc(Cl)cc1)Cc1ccccc1 [compound 7i] , inhibition at 10 µM value = -7.2

====

- Target entity: OCT2 (Homo sapiens, UniProt O15244)
- Sequence (O15244 whole entry): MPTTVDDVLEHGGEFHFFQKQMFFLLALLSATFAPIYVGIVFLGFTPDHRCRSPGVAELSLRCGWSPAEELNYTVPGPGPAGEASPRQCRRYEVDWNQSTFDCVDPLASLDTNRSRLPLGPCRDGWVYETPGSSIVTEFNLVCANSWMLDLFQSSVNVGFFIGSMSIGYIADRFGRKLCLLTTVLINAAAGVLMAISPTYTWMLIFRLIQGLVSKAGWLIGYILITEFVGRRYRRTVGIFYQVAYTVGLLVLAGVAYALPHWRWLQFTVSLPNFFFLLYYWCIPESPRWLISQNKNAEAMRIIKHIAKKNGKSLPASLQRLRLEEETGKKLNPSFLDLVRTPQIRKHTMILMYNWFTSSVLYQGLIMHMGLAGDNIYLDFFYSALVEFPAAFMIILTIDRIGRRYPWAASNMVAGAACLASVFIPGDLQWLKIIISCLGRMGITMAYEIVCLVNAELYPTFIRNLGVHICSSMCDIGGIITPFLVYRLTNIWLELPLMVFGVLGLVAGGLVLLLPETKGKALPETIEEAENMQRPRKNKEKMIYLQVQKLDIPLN
- Experiment: Drug transporter inhibition (SLC family)
- Assay type: in vitro ADME
- Test parameters: transporter-overexpressing cell lines, read-out: Drug transporters inhibition OCT2
- Method: The compound was classically evaluated at 10 µM for all the ADME analyses. Bidirectional permeability (apical A to basolateral B pH 6.5/7.4 and basolateral B to apical A pH 7.4/6.5) was assessed in the epithelial colorectal adenocarcinoma cell line (Caco-2 cell line). Results were expressed as × 10^−6cm/s (Papp) and as % recovery. Efflux ratio, i.e., Papp(B-A)/Papp(A-B), was calculated. Plasma protein binding was analyzed by HPLC-MS/MS after 4-h incubation at 37 °C, as described by Banker et al.. […]
Property: inhibition at 10 µM (%)
Number only, in %; omit the unit.

Value of measured inhibition at 10 µM for the entry `O=C(NCCCNCc1ccccc1)c1ccc(Cl)cc1` : 85.8

For reference, reported inhibition at 10 µM for `CN(CCCNC(=O)c1ccc(Cl)cc1)Cc1ccccc1` stands at 49.4

====

- Target entity: OAT1 (Homo sapiens, UniProt Q4U2R8)
- Sequence (Q4U2R8 whole entry): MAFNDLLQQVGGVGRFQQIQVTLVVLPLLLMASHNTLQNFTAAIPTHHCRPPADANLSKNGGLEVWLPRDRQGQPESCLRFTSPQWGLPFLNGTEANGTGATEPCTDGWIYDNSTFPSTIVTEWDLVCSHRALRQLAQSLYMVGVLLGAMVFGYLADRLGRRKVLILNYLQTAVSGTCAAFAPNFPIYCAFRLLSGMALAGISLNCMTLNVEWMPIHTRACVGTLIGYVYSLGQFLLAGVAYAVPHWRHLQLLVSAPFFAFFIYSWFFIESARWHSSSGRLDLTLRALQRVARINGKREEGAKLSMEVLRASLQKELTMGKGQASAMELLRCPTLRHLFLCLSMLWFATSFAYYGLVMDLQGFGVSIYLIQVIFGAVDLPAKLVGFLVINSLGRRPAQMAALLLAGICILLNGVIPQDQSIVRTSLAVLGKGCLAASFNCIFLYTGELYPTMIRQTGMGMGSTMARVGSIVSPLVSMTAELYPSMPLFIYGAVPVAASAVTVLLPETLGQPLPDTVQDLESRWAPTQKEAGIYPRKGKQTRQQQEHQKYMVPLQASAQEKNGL
- Experiment: Drug transporter inhibition (SLC family)
- Assay type: in vitro ADME
- Test parameters: transporter-overexpressing cell lines, read-out: Drug transporters inhibition OAT1
Give inhibition at 10 µM for every item shown.
Enter your answer as a number in %; do not include the unit.

Reported inhibition at 10 µM ( CN(CCCNC(=O)c1ccc(Cl)cc1)Cc1ccccc1 [compound 7i] ) = -9.6

Just so you know, measured inhibition at 10 µM for O=C(NCCCNCc1ccccc1)c1ccc(Cl)cc1 [compound 7i-deMe] came out at -6.2

====

- Experiment: Pharmacokinetic study in plasma and brain
- Format: in vivo, male C57BL/6 mice
- Test parameters: male, C57BL/6, mouse, plasma, po, 1 mg/kg, 30 min; read-out: Plasma C30
Property: concentration at 30 min
Just the number plus its unit, please.

Entry CN(CCCNC(=O)c1ccc(Cl)cc1)Cc1ccccc1 [compound 7i] , concentration at 30 min reported as 6.4 ng/mL

====

- Experiment: Pharmacokinetic study in plasma and brain
- Assay type: in vivo, male C57BL/6 mice
- Test parameters: male, C57BL/6, mouse, plasma, iv, 1 mg/kg, 30 min; read-out: Plasma C30
Property: concentration at 30 min (ng/mL)
Could you give me the number in ng/mL? Just the number is fine.

The recorded concentration at 30 min for `CN(CCCNC(=O)c1ccc(Cl)cc1)Cc1ccccc1` is 79.8

====

- Experiment: Pharmacokinetic study in plasma and brain
- Format: in vivo, male C57BL/6 mice
- Test parameters: i.v., 1 mg/kg, brain; unit assumed
Property: Brain AUC t^∞/AUC ∞ (%)
Numbers only here, please. The scale is %.

Lab book: Brain AUC t^∞/AUC ∞ of `CN(CCCNC(=O)c1ccc(Cl)cc1)Cc1ccccc1` noted as 5.9

====

Please go through the items and note down their inhibition at 10 µM.
- Target entity: CYP2C8 (Homo sapiens, UniProt P10632)
- Construct: tissue Eurofins Cerep (CRO); host or cells: human liver microsomes
- Sequence (P10632 whole entry): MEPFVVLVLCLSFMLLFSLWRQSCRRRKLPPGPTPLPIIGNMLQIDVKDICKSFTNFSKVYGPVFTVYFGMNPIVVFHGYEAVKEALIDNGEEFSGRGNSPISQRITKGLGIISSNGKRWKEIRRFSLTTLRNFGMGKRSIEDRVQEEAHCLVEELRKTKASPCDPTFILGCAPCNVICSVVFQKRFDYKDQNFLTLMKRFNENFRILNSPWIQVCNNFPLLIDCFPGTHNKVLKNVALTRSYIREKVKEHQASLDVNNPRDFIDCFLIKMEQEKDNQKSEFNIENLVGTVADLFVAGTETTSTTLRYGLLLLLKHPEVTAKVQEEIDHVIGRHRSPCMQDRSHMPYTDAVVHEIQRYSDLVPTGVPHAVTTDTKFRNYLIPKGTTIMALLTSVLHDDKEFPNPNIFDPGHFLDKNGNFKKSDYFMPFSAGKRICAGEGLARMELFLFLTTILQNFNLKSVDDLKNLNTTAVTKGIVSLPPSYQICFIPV
- Experiment: CYP inhibition in human liver microsomes
- Type: in vitro ADME
- Test parameters: read-out: CYPs inhibition CYP2C8
Provide only the numeric value, understood in %.

Lab book: inhibition at 10 µM of `CN(CCCNC(=O)c1ccc(Cl)cc1)Cc1ccccc1` noted as -9.2

inhibition at 10 µM reading for `O=C(NCCCNCc1ccccc1)c1ccc(Cl)cc1` : -7.2
